- Tested on: PPARg:RXRa DBDmut IVT, anti-RXR (DBD mutation: RXRa K156A/R161A, NR concentration 270 nM, RXRa partner concentration 90 nM)
- Experiment Notes: PBM binding z-score (relative to random genomic background probes); higher = stronger binding; sequences stand for … in GC…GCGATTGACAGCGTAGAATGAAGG
Parameter: PBM binding z-score
Field format: numeric only.

Example entries begin here.
Sequence Input: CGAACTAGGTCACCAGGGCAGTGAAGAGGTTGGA
PBM binding z-score: 8.17

Sequence Input: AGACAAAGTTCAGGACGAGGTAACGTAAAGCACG
PBM binding z-score: -0.362

Exercise: Which PBM binding z-score is listed for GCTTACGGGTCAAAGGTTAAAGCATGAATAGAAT ?
Key: 4.74

Exercise: Which PBM binding z-score is listed for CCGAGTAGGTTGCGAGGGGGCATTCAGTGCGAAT ?
Key: 1.37

Exercise: Which PBM binding z-score is listed for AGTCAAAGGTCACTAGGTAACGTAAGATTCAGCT ?
Key: 5.65

Exercise: Which PBM binding z-score is listed for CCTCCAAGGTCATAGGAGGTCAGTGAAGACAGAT ?
Key: 2.72

Exercise: Which PBM binding z-score is listed for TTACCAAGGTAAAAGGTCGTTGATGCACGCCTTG ?
Key: 0.76
